- Test system: Escherichia coli
- MEASUREMENT_PROTOCOL: Antibacterial activity against Escherichia coli RCMB 000103 at 10 mg/ml after 24 hrs by agar well diffusion method
- Format: functional
- CONDITION_CONTEXT: RCMB 000103, 24 h, read-out: DIZ
ATTRIBUTE_MEASURED: zone of inhibition at 10000 µg/mL (mm)
// units = mm; emit number, no label

Endpoint output: zone of inhibition at 10000 µg/mL of `Cc1c(Nc2csc(N)c2C#N)c(=O)n(-c2ccccc2)n1C` . Value?
24.4

Endpoint output: zone of inhibition at 10000 µg/mL of `CC(=O)Nc1c(C)n(C)n(-c2ccccc2)c1=O` . Value?
11.4

Endpoint output: zone of inhibition at 10000 µg/mL of `CCOC(=O)c1c(Nc2c(C)n(C)n(-c3ccccc3)c2=O)csc1N` . Value?
23.8

Endpoint output: zone of inhibition at 10000 µg/mL of `CCO/C=N\c1scc(Nc2c(C)n(C)n(-c3ccccc3)c2=O)c1C#N` . Value?
13.8

Endpoint output: zone of inhibition at 10000 µg/mL of `Cc1c(Nc2csc(NC(=O)CCl)c2C#N)c(=O)n(-c2ccccc2)n1C` . Value?
16.2

Switching to the query record.
Endpoint output: zone of inhibition at 10000 µg/mL of `Cc1c(Nc2csc3ncnc(N)c23)c(=O)n(-c2ccccc2)n1C` . Value?
10.4
